METHOD: qHTS assay for identifying genotoxic compounds that show differential cytotoxicity against isogenic chicken DT40 cell lines with known DNA damage response pathways - Rad54/Ku70 mutant cell line (AID 743015); note: nearly all actives have a fitted effect of over 60% in size
STUDY_CONDITIONS: DT40 Rad54/Ku70 mutant viability, CellTiter-Glo, 40 h; series mostly up to 66.8 µM
Results filed as inconclusive are left out. The source made the active and inactive calls. Calls come from the whole dose curve; as a rule, active = well fitted cell-killing curve with a large enough effect in the repeat runs; inconclusive = weak or mixed curves; inactive = no such curve, though single readings can be large or run the other way.
Pick one and only one: active, inactive

Look over these answered cases.
1) CC1(C)C(\C=C/C=C\C=C/C=C2/N(CCCCS(=O)(=O)O)c3ccc4ccccc4c3C2(C)C)=[N+](CCCCS(=O)(=O)[O-])c2ccc3ccccc3c21 ... active
2) Cc1cc(C(=O)NNCc2ccccc2)no1 ... inactive
3) Cc1cc(O)c2c(c1)O[C@@]1(C)CC[C@H]3C(C)(C)CCCC34CO[C@@H]2[C@H]41 (stereo partly drawn) ... active
4) O=P(O)(O)OC[C@H](O)CO ... inactive
5) CO[C@H]1C=CO[C@@]2(C)Oc3c(C)c(O)c4c(O)c(c(/C=N/N5CCN(C6CCCC6)CC5)c(O)c4c3C2=O)NC(=O)/C(C)=C\C=C[C@H](C)[C@H](O)[C@@H](C)[C@@H](O)[C@@H](C)[C@H](OC(C)=O)[C@@H]1C ... active

Please indicate how the test categorized C[C@H](N)C(=O)N[C@@H](C)P(=O)(O)O . inactive

What classification did O=C(O)COc1ccc(CCNS(=O)(=O)c2ccccc2)s1 end up with in this test? inactive

Dear all, I need the recorded test outcome for N[C@@H](C(=O)N[C@@H]1C(=O)N2C(C(=O)O)=C(CSc3cn[nH]n3)CS[C@H]12)c1ccc(O)cc1 , thank you. inactive
